Molecular target: proteasome activity in HT-29 cells (enriched in constitutive proteasome) (Homo sapiens)
Construct: endogenous in cells
Experiment: Inhibition of proteasome activity in cells (Proteasome-Glo), HT-29
Conditions: 2 hr incubation, Suc-LLVY-aminoluciferin, read-out: HT29 IC50
Measured pIC50, listed per entry.
Quick note: pIC50 means taking -log10 of the concentration in moles per liter.

Sample answers from the record:
[
  {
    "MOLECULE": "Cc1ccc(CNC(=O)[C@H](COc2cccc(C=C(C#N)C(=O)NC(C)(C)C)c2)NC(=O)[C@@H](NC(=O)c2cc(C)on2)[C@@H](C)O)cc1 [Example 3]",
    "NUMERIC VALUE": 5.86
  },
  {
    "MOLECULE": "Cc1ccc(CNC(=O)[C@H](Cc2cccc(N(C)C(=O)C(C#N)=CC(C)C)c2)NC(=O)[C@@H](NC(=O)c2cc(C)on2)[C@@H](C)O)c(F)c1 [Example 27]",
    "NUMERIC VALUE": 6.44
  }
]

Per the records, this molecule ( Cc1ccc(CNC(=O)[C@H](CCCCNC(=O)C(C#N)=CC(C)C)NC(=O)[C@@H](NC(=O)c2cc(C)on2)[C@@H](C)O)cc1 [Example 21] ) has pIC50 equal to 6.19

---

Measured IC50, listed per entry.
Biological target: proteasome activity in primary human peripheral blood mononuclear cells (PBMC) (Homo sapiens)
Construct: endogenous in cells
Assay: Inhibition of proteasome activity in cells (Proteasome-Glo), PBMC
Conditions: 2 hr incubation, Suc-LLVY-aminoluciferin
Experimental: The cell-based effects of the compound of the present disclosure on immunoproteasome were determined by measuring inhibition of proteasome activity in cells using the Proteasome-Glo™ Cell-Based Reagent (Promega, Madison Wis). […] The plate was read in the Analyst HT instrument (Molecular Devices, Sunnyvale, Calif.) using luminescence mode. […] The IC50 was then calculated for each compound using Prism software from GraphPad Software Inc. (San Diego, Calif).
Form field: result (number plus unit)

Sample answers from the record:
[
  {
    "SMILES STRING": "Cc1ccc(CNC(=O)[C@H](Cc2cccc(N(C)C(=O)C(C#N)=CC(C)C)c2)NC(=O)[C@@H](NC(=O)c2cc(C)on2)[C@@H](C)O)cc1",
    "READOUT": "IC50",
    "RESULT": "0.015 µM"
  },
  {
    "SMILES STRING": "Cc1ccc(CNC(=O)[C@H](Cc2cccc(N(C)C(=O)C(C#N)=CC(C)C)c2)NC(=O)[C@@H](NC(=O)c2cc(C)on2)[C@@H](C)O)c(F)c1",
    "READOUT": "IC50",
    "RESULT": "0.013 µM"
  }
]

Per the records, this molecule ( Cc1ccc(CNC(=O)[C@H](COc2cccc(C=C(C#N)C(=O)NC(C)(C)C)c2)NC(=O)[C@@H](NC(=O)c2cc(C)on2)[C@@H](C)O)cc1 ) has IC50 equal to 0.003 µM

Per the records, this molecule ( Cc1ccc(CNC(=O)[C@H](COc2cccc(C=C(C#N)n3cncn3)c2)NC(=O)[C@@H](NC(=O)c2cc(C)on2)[C@@H](C)O)cc1 ) has IC50 equal to 0.01 µM

Per the records, this molecule ( Cc1ccc(CNC(=O)[C@H](CCc2cccc(C=C(C#N)C(=O)N(C)C)c2)NC(=O)[C@@H](NC(=O)c2cc(C)on2)[C@@H](C)O)cc1 ) has IC50 equal to 0.013 µM

Per the records, this molecule ( Cc1ccc(CNC(=O)[C@H](CCCCNC(=O)C(C#N)=CC(C)C)NC(=O)[C@@H](NC(=O)c2cc(C)on2)[C@@H](C)O)cc1 ) has IC50 equal to 0.023 µM

---

Target: immunoproteasome (LMP7/B5i) (Homo sapiens, UniProt P20618+P28062)
Experiment: Caliper-based proteasome assay, immunoproteasome chymotrypsin-like activity
Settings: human recombinant immunoproteasome 0.3 nM, FAM-labeled peptide substrate 1 μM, room temperature 3 h
READOUT: pIC50
Quick note: pIC50 means taking -log10 of the concentration in moles per liter.

Sample answers from the record:
[
  {
    "COMPOUND": "Cc1ccc(CNC(=O)[C@H](Cc2cccc(N(C)C(=O)C(C#N)=CC(C)C)c2)NC(=O)[C@@H](NC(=O)c2cc(C)on2)[C@@H](C)O)cc1 [Example 25]",
    "pIC50": 7.54
  },
  {
    "COMPOUND": "Cc1ccc(CNC(=O)[C@H](Cc2cccc(NC(=O)C(C#N)=CC(C)C)c2)NC(=O)[C@@H](NC(=O)c2cc(C)on2)[C@@H](C)O)cc1 [Example 24]",
    "pIC50": 7.19
  },
  {
    "COMPOUND": "Cc1ccc(CNC(=O)[C@H](COc2cccc(C=C(C#N)n3cncn3)c2)NC(=O)[C@@H](NC(=O)c2cc(C)on2)[C@@H](C)O)cc1 [Example 8a]",
    "pIC50": 7.77
  }
]

Turning to the following compound.
Form field, pIC50 with immunoproteasome (LMP7/B5i) (Homo sapiens, UniProt P20618+P28062), item Cc1ccc(CNC(=O)[C@H](COc2cccc(C=C(C#N)C(=O)NC(C)(C)C)c2)NC(=O)[C@@H](NC(=O)c2cc(C)on2)[C@@H](C)O)cc1 [Example 3] : 7.57
